molecular target: rat-alpha7-nAChR (Rattus norvegicus, UniProt Q05941); construct: expressed in transfected cells; test: functional FLIPR assay, alpha7 nAChR stably expressed in GH4C1 cells; assay type: cell-based; conditions: GH4C1 cell line expressing the alpha7 nAChR, concentration-response curves; read-out: Alpha 7 EC50
Sequence (Q05941 23-502): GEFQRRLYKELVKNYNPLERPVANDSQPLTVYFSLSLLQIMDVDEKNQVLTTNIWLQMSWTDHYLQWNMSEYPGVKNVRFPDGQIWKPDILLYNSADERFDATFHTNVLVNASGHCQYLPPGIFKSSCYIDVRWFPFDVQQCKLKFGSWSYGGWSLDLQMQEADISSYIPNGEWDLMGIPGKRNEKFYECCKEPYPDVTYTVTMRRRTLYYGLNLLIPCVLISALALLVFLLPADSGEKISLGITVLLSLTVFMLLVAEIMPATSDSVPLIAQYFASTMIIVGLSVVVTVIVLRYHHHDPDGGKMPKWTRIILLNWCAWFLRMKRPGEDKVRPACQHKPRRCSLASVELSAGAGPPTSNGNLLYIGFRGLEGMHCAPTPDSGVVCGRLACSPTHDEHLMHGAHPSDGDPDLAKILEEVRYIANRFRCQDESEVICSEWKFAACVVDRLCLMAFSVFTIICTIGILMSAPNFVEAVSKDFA
Listing of recorded pEC50 by entry.
Scale: negative log10 of molar concentration, which is what pEC50 denotes.

| smiles-data | pEC50 |
| --- | --- |
| O=C(NCCCCN1CCCCC1)Nc1ccc(-c2cccc(F)c2)cc1 | 6.96 |

Now let's try a different one.
pEC50 measured on COc1ccc(F)c(-c2ccc(NC(=O)NCCCCN3CCCCC3)cn2)c1 = 7.10

# credit: patent US20100016343A1
